Assay: Pharmacokinetic analysis in blood plasma of cattle after single SC administration
Format: in vivo
Conditions: bovine, plasma, sc, 10 mg/kg, cattle, SC 10 mg/kg 17.5% oily suspension, 24 h after administration

| smiles.repr | concentration at 24 h |
| --- | --- |
| COCCNCc1ccc(C#Cc2ccc(C(=O)N[C@H](C(=O)NO)C(C)(C)N)cc2)cc1 | 56.5 ng/mL |

* * *

Assay: Pharmacokinetic analysis in blood plasma of cattle after single SC administration
Type: in vivo
Settings: bovine, plasma, sc, 10 mg/kg, cattle, SC 10 mg/kg 15% aqueous solution, 10 h after administration

| smiles.repr | concentration at 10 h, ng/mL |
| --- | --- |
| COCCNCc1ccc(C#Cc2ccc(C(=O)N[C@H](C(=O)NO)C(C)(C)N)cc2)cc1 | 320 |

* * *

Experiment: Pharmacokinetic analysis in blood plasma of cattle after single SC administration
Assay type: in vivo
Settings: bovine, plasma, sc, 10 mg/kg, cattle, SC 10 mg/kg 17.5% oily suspension, 0.25 h after administration

| smiles.repr | concentration at 0.25 h (ng/mL) |
| --- | --- |
| COCCNCc1ccc(C#Cc2ccc(C(=O)N[C@H](C(=O)NO)C(C)(C)N)cc2)cc1 | 1220 |

* * *

Experiment: Pharmacokinetic analysis in blood plasma of cattle after single SC administration
Format: in vivo
Details: bovine, plasma, sc, 10 mg/kg, cattle, SC 10 mg/kg 17.5% oily suspension, 10 h after administration
property.label: concentration at 10 h

| compound | experimental.result |
| --- | --- |
| COCCNCc1ccc(C#Cc2ccc(C(=O)N[C@H](C(=O)NO)C(C)(C)N)cc2)cc1 [Compound A] | 319 ng/mL |

* * *

Assay: Pharmacokinetic analysis in blood plasma of cattle after single SC administration
Format: in vivo
Conditions: bovine, plasma, sc, 10 mg/kg, cattle, SC 10 mg/kg 17.5% oily suspension, 7 h after administration
property.label: concentration at 7 h (ng/mL)

| molecule | experimental.result |
| --- | --- |
| COCCNCc1ccc(C#Cc2ccc(C(=O)N[C@H](C(=O)NO)C(C)(C)N)cc2)cc1 [Compound A] | 433 |

* * *

Experiment: Pharmacokinetic analysis in blood plasma of cattle after single SC administration
Format: in vivo
Settings: bovine, plasma, sc, 10 mg/kg, cattle, SC 10 mg/kg 15% aqueous solution, 7 h after administration

| compound | concentration at 7 h / ng/mL |
| --- | --- |
| COCCNCc1ccc(C#Cc2ccc(C(=O)N[C@H](C(=O)NO)C(C)(C)N)cc2)cc1 [Compound A] | 395 |

* * *

Assay: Pharmacokinetic analysis in blood plasma of cattle after single SC administration
Type: in vivo
Details: bovine, plasma, sc, 10 mg/kg, cattle, SC 10 mg/kg 15% aqueous solution, 1 h after administration
property.label: concentration at 1 h (ng/mL)

| smiles.repr | property.label | units.text | experimental.result |
| --- | --- | --- | --- |
| COCCNCc1ccc(C#Cc2ccc(C(=O)N[C@H](C(=O)NO)C(C)(C)N)cc2)cc1 | concentration at 1 h | ng/mL | 1260 |

* * *

Assay: Pharmacokinetic analysis in blood plasma of cattle after single SC administration
Type: in vivo
Settings: bovine, plasma, sc, 10 mg/kg, cattle, SC 10 mg/kg 17.5% oily suspension, 2 h after administration
property.label: concentration at 2 h (ng/mL)

| smiles.repr | units.text | experimental.result |
| --- | --- | --- |
| COCCNCc1ccc(C#Cc2ccc(C(=O)N[C@H](C(=O)NO)C(C)(C)N)cc2)cc1 | ng/mL | 413 |
